# Protocol description: Maximum plasma concentration of compound in dog following p.o. administration of 0.5 mg/kg
# Format: ADME, organism-based, Canis lupus familiaris
# Set-up: dose 0.5 mg/kg, route oral
# Test conditions: po
Measured parameter: Cmax (nM)
Lab book: enter the figure in nM, no units written.

Lab book: Cmax of O=C(Cn1c(Cl)cnc(NCC(F)(F)c2ccccn2)c1=O)NCc1ccccc1-n1cncn1 noted as 1130

----------
# Protocol description: Maximum plasma concentration of compound in dog following p.o. administration of 0.9 mg/kg
# Type: ADME, organism-based, Canis lupus familiaris
# Parameters: dose 0.9 mg/kg, route oral
# Test conditions: po
Measured parameter: Cmax (nM)
Lab book: enter the figure in nM, no units written.

Lab book: Cmax of Cc1ccc(-n2cncn2)c(CNC(=O)CN2C=CN=C(NCC(F)(F)c3ccccn3)C2)c1 noted as 1040
